# test.description: Selectivity index, ratio of IC50 for rat L6 cells to ratio of IC50 for trypomastigote form of Trypanosoma brucei rhodesiense STIB 900
# Format: toxicity, cell-based
# settings: read-out: Selectivity Index
The recorded selectivity ratio of each item maps onto one of these classes: b0: < 1; b1: ≥ 1 and < 6; b2: ≥ 6

C/C=C(/C)C(=O)OC(C)c1cc2c(cc1OC)OC(C)(C)C=C2 (centres undefined) = b0
COc1cc2c(cc1C(C)NCCc1ccccc1)CCC(C)(C)O2 (centres undefined) = b1
CCCCNC(C)c1cc2c(cc1OC)OC(C)(C)C=C2 (centres undefined) = b2

Request: Determine which band this compound sits in: COc1cc2c(cc1C(C)NCCCc1ccccc1)CCC(C)(C)O2 (centres undefined)
Result: b1

###

# test.description: Selectivity index, ratio of IC50 for rat L6 cells to ratio of IC50 for axenic amastigote form of Leishmania donovani MHOM/ET/67/L82
# Format: toxicity, cell-based
# settings: read-out: Selectivity Index
Response field label: string, one of true (selectivity ratio strictly below 0.2) or false.

# count of solved cases: 3
C/C=C(/C)C(=O)OC(C)c1cc2c(cc1OC)OC(C)(C)C=C2 (configuration not stated) = false
COc1cc2c(cc1C(C)NCc1ccccc1)CCC(C)(C)O2 (configuration not stated) = false
COc1cc2c(cc1C(C)OCc1ccccc1)C=CC(C)(C)O2 (configuration not stated) = false

Request: I'd appreciate it if you could check whether COc1cc2c(cc1C(C)NCCCc1ccccc1)C=CC(C)(C)O2 (configuration not stated) has selectivity ratio smaller than 0.2.
Result: true

Request: selectivity ratio strictly < 0.2 for this compound? COc1cc2c(cc1C(C)OC/C=C/c1ccccc1)C=CC(C)(C)O2 (configuration not stated)
Result: false

Request: hey, is selectivity ratio for COc1cc2c(cc1C(C)NCCc1ccccc1)C=CC(C)(C)O2 (configuration not stated) lower than 0.2 or not?
Result: true

Request: Hello, is selectivity ratio of the following compound strictly smaller than 0.2? COc1cc2c(cc1C(C)NC(=O)Cc1ccccc1)C=CC(C)(C)O2 (configuration not stated)
Result: false

Request: Take the compound COc1cc2c(cc1C(C)OCCc1ccccc1)C=CC(C)(C)O2 (configuration not stated) and say whether its selectivity ratio is less than 0.2.
Result: false

Request: Consider the compound COc1cc2c(cc1C(C)NCc1ccccc1)C=CC(C)(C)O2 (configuration not stated) . Is its selectivity ratio strictly less than 0.2?
Result: true

Request: Consider the compound COc1cc2c(cc1C(C)NCCc1ccccc1)CCC(C)(C)O2 (configuration not stated) . Is its selectivity ratio strictly less than 0.2?
Result: false

Request: Here's an entry: COc1cc2c(cc1C(C)N1CCCC1)C=CC(C)(C)O2 (configuration not stated) . Is its selectivity ratio below 0.2?
Result: false

Request: API: query returns whether the compound falls strictly under 0.2 in selectivity ratio. Query: COc1cc2c(cc1C(C)NCCCCc1ccccc1)C=CC(C)(C)O2 (configuration not stated)
Result: true

###

# System: L6
# test.description: Cytotoxicity against rat L6 cells
# Type: cell-based
Decision: IC50 beneath 20 µM gives Yes; IC50 meeting or exceeding 20 µM gives No.

COc1cc2c(cc1C(C)NCCc1ccccc1)CCC(C)(C)O2 (stereo unspecified) = Yes

// switching to the query compound
Request: Consider COc1cc2c(cc1C(C)NC(=O)c1ccccc1)C=CC(C)(C)O2 (stereo unspecified) . Does its IC50 lie strictly below 20 µM?
Result: No

###

# test.description: Selectivity index, ratio of IC50 for rat L6 cells to ratio of IC50 for chloroquine/pyrimethamine-resistant erythrocytic form of Plasmodium falciparum K1
# Type: toxicity, cell-based
# settings: read-out: Selectivity Index
Exercise: for every item that follows, state its recorded selectivity ratio.
One number for each entry.

CC(NCCCc1ccccc1)c1cc2c(cc1O)OC(C)(C)C=C2 (stereo unspecified) = 1820
CCN(CC)CCCC(C)NC(C)c1cc2c(cc1OC)OC(C)(C)C=C2 (stereo unspecified) = 17.5
COc1cc2c(cc1C(C)NCC1CCCCC1)C=CC(C)(C)O2 (stereo unspecified) = 5.88

Quick one: give me selectivity ratio for each item below, same order please.
1. COc1cc2c(cc1C(C)NCCc1ccccc1)C=CC(C)(C)O2 (stereo unspecified)
2. COc1cc2c(cc1C(C)OCCc1ccccc1)C=CC(C)(C)O2 (stereo unspecified)
3. COc1cc2c(cc1C(C)N[C@H](C)c1ccccc1)C=CC(C)(C)O2 (stereo partly specified)

Result:
6.34
2.08
22.1

###

# test.description: Selectivity index, ratio of IC50 for rat L6 cells to ratio of IC50 for trypomastigote form of Trypanosoma brucei rhodesiense STIB 900
# Type: toxicity, cell-based
# settings: read-out: Selectivity Index
Please respond with reported selectivity ratio for every item in the list.
One number for each entry.

Field: example entries. Status: answers known.
COc1cc2c(cc1C(C)NCCCCc1ccccc1)CCC(C)(C)O2 (stereo not given) = 2.87
COc1cc2c(cc1C(C)NC(=O)/C=C/c1ccccc1)C=CC(C)(C)O2 (stereo not given) = 2.99
COc1cc2c(cc1C(C)N(C)CCCc1ccccc1)C=CC(C)(C)O2 (stereo not given) = 5.12
COc1cc2c(cc1C(C)N1CCOCC1)C=CC(C)(C)O2 (stereo not given) = 1.63

Request: What selectivity ratio value was documented for this compound, CCN(CC)CCCC(C)NC(C)c1cc2c(cc1OC)OC(C)(C)C=C2 (stereo not given) ?
Result: 22.5

###

# Tested on: Leishmania tarentolae
# test.description: Antiprotozoal activity against promastigote form of Leishmania tarentolae P10 assessed as parasite growth inhibition after 48 hrs by MTT assay
# Type: functional, organism-based
# settings: P10, 48 h
pIC50: −log10 of the molar value.
Kind request: treat 5 as inclusive, so pIC50 at 5 or higher is Satisfied, anything lower is Not satisfied.

Reference set (4 entries):
COc1cc2c(cc1C(C)NCCCCc1ccccc1)C=CC(C)(C)O2 (stereo not drawn) = Satisfied
COc1cc2c(cc1C(C)OCc1ccccc1)C=CC(C)(C)O2 (stereo not drawn) = Satisfied
CCN(CC)CCCC(C)NC(C)c1cc2c(cc1OC)OC(C)(C)C=C2 (stereo not drawn) = Satisfied
COc1cc2c(cc1C(C)NCc1ccccc1)C=CC(C)(C)O2 (stereo not drawn) = Satisfied

Request: Item COc1cc2c(cc1C(C)NCc1ccccc1)CCC(C)(C)O2 (stereo not drawn) with pIC50 of 5 or above?
Result: Not satisfied

Request: Check if pIC50 >= 5 (inclusive). Item: COc1cc2c(cc1C(C)NCCc1ccccc1)C=CC(C)(C)O2 (stereo not drawn)
Result: Satisfied

Request: Quick check, pIC50 >= 5? COc1cc2c(cc1C(C)NCCCc1ccccc1)CCC(C)(C)O2 (stereo not drawn)
Result: Not satisfied

Request: Please check the record COc1cc2c(cc1C(C)NC/C=C/c1ccccc1)C=CC(C)(C)O2 (stereo not drawn) and state if its pIC50 is at or above 5.
Result: Satisfied

Request: Quick check, pIC50 >= 5? COc1cc2c(cc1C(C)NCCCCc1ccccc1)CCC(C)(C)O2 (stereo not drawn)
Result: Not satisfied

Request: Does the compound COc1cc2c(cc1C(C)OCCc1ccccc1)C=CC(C)(C)O2 (stereo not drawn) have recorded pIC50 that is 5 or more?
Result: Satisfied

Request: Kindly determine if pIC50 recorded for COc1cc2c(cc1C(C)NCCCc1ccccc1)C=CC(C)(C)O2 (stereo not drawn) is above or exactly 5.
Result: Satisfied

Request: Entry COc1cc2c(cc1C(C)OC/C=C/c1ccccc1)C=CC(C)(C)O2 (stereo not drawn) : is its pIC50 no less than 5?
Result: Satisfied

Request: Kindly determine if pIC50 recorded for COc1cc2c(cc1C(C)NC(=O)/C=C/c1ccccc1)C=CC(C)(C)O2 (stereo not drawn) is above or exactly 5.
Result: Satisfied

Request: Say whether COc1cc2c(cc1C(C)NCCc1ccccc1)CCC(C)(C)O2 (stereo not drawn) shows pIC50 of 5 or more.
Result: Not satisfied

Request: Decide: is the reported value of pIC50 for COc1cc2c(cc1C(C)N1CCCC1)C=CC(C)(C)O2 (stereo not drawn) equal to or greater than 5?
Result: Not satisfied

###

# Test system: L6
# test.description: Cytotoxicity against rat L6 cells
# Assay type: cell-based
pIC50: −log10 of the molar value.
Assign label 1 whenever pIC50 does not fall below 4; assign label 0 whenever it does.

Worked examples follow.
COc1cc2c(cc1C(C)NCc1ccccc1)CCC(C)(C)O2 (stereo not drawn) = label 1
CCNC(C)c1cc2c(cc1OC)OC(C)(C)C=C2 (stereo not drawn) = label 0
COc1cc2c(cc1C(C)N1CCCC1)C=CC(C)(C)O2 (stereo not drawn) = label 0
COc1cc2c(cc1C(C)OC/C=C/c1ccccc1)C=CC(C)(C)O2 (stereo not drawn) = label 1
COc1ccc(CNC(C)c2cc3c(cc2OC)OC(C)(C)C=C3)cc1 (stereo not drawn) = label 1

Request: Has CC(NCCCc1ccccc1)c1cc2c(cc1O)OC(C)(C)C=C2 (stereo not drawn) a recorded pIC50 greater than or equal to 4?
Result: label 1

Request: Is reported pIC50 greater than or equal to 4 here: CCN(CC)CCCC(C)NC(C)c1cc2c(cc1OC)OC(C)(C)C=C2 (stereo not drawn)
Result: label 1

Request: Check if pIC50 >= 4 (inclusive). Item: CCCCNC(C)c1cc2c(cc1OC)OC(C)(C)C=C2 (stereo not drawn)
Result: label 1

Request: Could you tell me if the measured pIC50 of COc1cc2c(cc1C(C)N[C@@H](C)c1ccccc1)C=CC(C)(C)O2 (stereo partly drawn) reaches 4 or more?
Result: label 1

Request: Threshold query (pIC50 >= 4) on COc1cc2c(cc1C(C)N(C)CCCc1ccccc1)C=CC(C)(C)O2 (stereo not drawn)
Result: label 1

Request: Entry COc1cc2c(cc1C(C)NCC1CCCCC1)C=CC(C)(C)O2 (stereo not drawn) : is its pIC50 no less than 4?
Result: label 1
